Entries below carry reported pKd on PRMT5•SAM (biotinylated PRMT5-MEP50) (Homo sapiens (Human)).
Sequence (O14744 whole entry): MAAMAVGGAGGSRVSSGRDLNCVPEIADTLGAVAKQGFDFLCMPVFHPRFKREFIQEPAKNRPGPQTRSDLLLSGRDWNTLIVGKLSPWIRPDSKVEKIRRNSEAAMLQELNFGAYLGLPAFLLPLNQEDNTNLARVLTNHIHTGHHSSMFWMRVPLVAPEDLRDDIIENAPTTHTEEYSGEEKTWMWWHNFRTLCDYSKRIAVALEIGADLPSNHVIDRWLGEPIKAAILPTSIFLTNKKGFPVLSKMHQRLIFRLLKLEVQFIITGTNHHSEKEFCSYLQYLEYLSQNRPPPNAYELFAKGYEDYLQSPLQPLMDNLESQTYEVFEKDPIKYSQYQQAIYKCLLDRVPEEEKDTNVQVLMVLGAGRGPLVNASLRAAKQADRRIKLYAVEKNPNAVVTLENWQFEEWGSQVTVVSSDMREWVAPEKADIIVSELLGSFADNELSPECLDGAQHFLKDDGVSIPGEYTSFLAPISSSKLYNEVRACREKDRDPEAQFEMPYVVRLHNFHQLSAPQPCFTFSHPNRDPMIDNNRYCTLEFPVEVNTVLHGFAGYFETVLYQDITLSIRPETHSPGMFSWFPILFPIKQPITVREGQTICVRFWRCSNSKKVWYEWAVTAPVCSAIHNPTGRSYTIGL
Sequence (Q9BQA1 whole entry partner): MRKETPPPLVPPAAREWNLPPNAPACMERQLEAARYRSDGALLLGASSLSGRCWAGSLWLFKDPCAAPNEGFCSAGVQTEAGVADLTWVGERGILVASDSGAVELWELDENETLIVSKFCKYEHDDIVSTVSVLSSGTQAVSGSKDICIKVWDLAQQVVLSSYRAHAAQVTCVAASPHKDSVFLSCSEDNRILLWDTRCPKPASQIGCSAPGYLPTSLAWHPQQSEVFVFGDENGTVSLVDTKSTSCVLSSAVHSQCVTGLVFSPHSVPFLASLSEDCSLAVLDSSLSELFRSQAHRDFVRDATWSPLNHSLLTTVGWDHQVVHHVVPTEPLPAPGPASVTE
pKd: −log10 of the molar value.
measured property: pKd

molecule | measured property | measured number
CC(=O)N(C)Cc1cc2nc(N)c(C)cc2[nH]1 [Example 14-4] | pKd | 7.10
CC(=O)N(Cc1cc2nc(N)c(C)cc2[nH]1)c1ccc2ccccc2c1C#N [Example 14-2] | pKd | 9.00
Cc1cc(N)nc2cc(CNC(=O)c3cc(O)ncn3)cnc12 [Example 7-3] | pKd | 4.90
Cc1cc2[nH]c(N3CC(=O)N(C)C3=O)cc2nc1N [Example 13-4] | pKd | 4.51
Cc1cc(N)nc2cc(Cc3ccccc3Cl)cnc12 [Example 2-3] | pKd | 4.50
Cc1cc2[nH]c(-n3cncn3)cc2nc1N [Example 13-1] | pKd | 5.93
Nc1nc2cc(NC(=O)c3ccccc3F)[nH]c2cc1Br [Example 12-4] | pKd | 5.31
Cc1cc2[nH]c(-n3cnc(Br)c3)cc2nc1N [Example 13-3] | pKd | 5.70
CC(=O)c1c(CNC(=O)c2ccccc2)[nH]c2cc(C)c(N)nc12 [Example 15-5] | pKd | 3.20
CC(=O)N(Cc1cnc2c(C)cc(N)nc2c1)c1ccc2ccccc2c1C#N [Example 7-5] | pKd | 8.70
Cc1cc2[nH]ccc2nc1N [Example 9-1] | pKd | 5.47
Nc1nc2cc(NC(=O)c3ccccc3)[nH]c2cc1Br [Example 12-1] | pKd | 5.20
Nc1nc2cc(CNC(=O)c3ccncn3)[nH]c2cc1Br [Example 8-2] | pKd | 6.86
Cc1cc(N)nc2ccc(-c3ccccc3F)nc12 [Example 4-7] | pKd | 4.09
Cc1cc2sc(CNC(=O)c3ccccc3)cc2nc1N [Example 16-1] | pKd | 5.87
Cc1cc(N)nc2cc(CNC(=O)c3ccccc3)cnc12 [Example 8-1] | pKd | 7.48
Nc1nc2cc[nH]c2cc1C1CC1 [Example 9-2] | pKd | 4.71
Cc1cc2[nH]c(CN3CCc4ccccc4C3=O)cc2nc1N [Example 14-6] | pKd | 8.22
Cc1cc(N)nc2cc(Cc3ccccc3C#N)cnc12 [Example 2-4] | pKd | 5.51
CC(=O)NCc1cc2nc(N)c(C)cc2[nH]1 [Example 14-3] | pKd | 7.42
Cc1cc(N)nc2cc(CN3C(=O)c4ccccc4C3=O)cnc12 [Example 7-6] | pKd | 6.98
Cc1cc(N)nc2cc(CNC(=O)c3cc(NC4CC4)ncn3)cnc12 [Example 7-4] | pKd | 7.09
Cc1cc(N)nc2cc(Cc3ccccc3F)cnc12 [Example 2-2] | pKd | 4.41
Cc1cc(N)nc2cc(Cc3cnn(C)c3)cnc12 [Example 2-9] | pKd | 6.13
Cc1cc2[nH]c(CN3C(=O)c4ccccc4C3=O)cc2nc1N [Example 14-1] | pKd | 8.22
Cc1cc(N)nc2cc(CNC(=O)c3ccncn3)cnc12 [Example 7-2] | pKd | 5.65
Cc1cc2[nH]c(Cn3ccc4ccccc4c3=O)cc2nc1N [Example 14-7] | pKd | 8.22
Cc1cc(N)nc2cc(CNC(=O)c3ccccc3)cnc12 [Example 7-1] | pKd | 6.40
Cc1cc(N)nc2cc(Cc3cccnc3)cnc12 [Example 2-7] | pKd | 5.91
Nc1nc2cc[nH]c2cc1C(F)(F)F [Example 9-3] | pKd | 4.53
CC(=O)N(C)Cc1cc2nc(N)c(C)cc2n1C(C)=O [Example 15-8] | pKd | 6.47
Cc1cc2[nH]c(C(C#N)N3C(=O)c4ccccc4C3=O)cc2nc1N (stereo not drawn) [Example 14-5] | pKd | 6.14
Cc1cc(N)nc2cc(-c3cnsc3)cnc12 [Example 1-8] | pKd | 4.72

Measured values drawn from patent US20240368153A1 for this set.
